Below: a set of entries, each annotated with reported MIC.
test system: Bifidobacterium breve; test: Antibacterial activity against Bifidobacterium breve HM1120 assessed as reduction in microbial growth incubated for 48 hrs by broth microdilution method; type: functional
Answer with a number only, understood to be in µg/mL.

compound: O=C(Nc1ncc([N+](=O)[O-])s1)C1CN(c2cccc(Cl)c2)N(c2cccc(Cl)c2)C1=O (centres undefined)
system.tested: Bifidobacterium breve
MIC [µg/mL]: 64

GET /value?item= `CN[C@H](CC(C)C)C(=O)N[C@H]1C(=O)N[C@@H](CC(N)=O)C(=O)N[C@H]2C(=O)N[C@H]3C(=O)N[C@H](C(=O)N[C@H](C(=O)O)c4cc(O)cc(O)c4-c4cc3ccc4O)[C@H](O)c3ccc(c(Cl)c3)Oc3cc2cc(c3O[C@@H]2O[C@H](CO)[C@@H](O)[C@H](O)[C@H]2O[C@H]2C[C@](C)(N)[C@H](O)[C@H](C)O2)Oc2ccc(cc2Cl)[C@H]1O` &field=MIC returns 1

---

tested on: Staphylococcus aureus; assay: Antibacterial activity against Staphylococcus aureus Newman D2C NCTC 10833 assessed as reduction in microbial growth incubated for 16 hrs by serial dilution method; type: functional
measurement.name: MIC

compound: O=C(NCc1ccco1)C1CN(c2cccc(Cl)c2)N(c2cccc(Cl)c2)C1=O (stereo not given)
MIC: > 40 µM

compound: O=C(NCc1cccnc1)C1CN(c2cccc(Cl)c2)N(c2cccc(Cl)c2)C1=O (stereo not given)
MIC: > 40 µM

compound: CN1C(=O)C(C(=O)NC2CCSC2=O)CN1c1cccc(Cl)c1 (stereo not given)
MIC: > 40 µM

Documented MIC of O=C(Nc1ccc2[nH]ncc2c1)C1CN(c2cccc(Cl)c2)N(c2cccc(Cl)c2)C1=O (stereo not given) : > 40 µM

For reference, reported MIC for O=C(Nc1cccc(-c2cn[nH]c2)c1)C1CN(c2cccc(Cl)c2)N(c2cccc(Cl)c2)C1=O (stereo not given) stands at > 40 µM

The compound listed as O=C1SCCC1NC(=O)C1CN(c2ccccc2)N(c2ccccc2)C1=O (stereo not given) has a reported MIC of > 40 µM

---

target: UDP-N-acetylglucosamine 1-carboxyvinyltransferase (Escherichia coli K-12, UniProt P0A749, C115D); test: Inhibition of Escherichia coli MurA C115D mutant at 50 uM using UNAG as substrate pre incubated for 15 mins followed by substrate addition and measured after 15 mins by microplate reader analysis relative to control
Sequence (P0A749 whole entry C115D): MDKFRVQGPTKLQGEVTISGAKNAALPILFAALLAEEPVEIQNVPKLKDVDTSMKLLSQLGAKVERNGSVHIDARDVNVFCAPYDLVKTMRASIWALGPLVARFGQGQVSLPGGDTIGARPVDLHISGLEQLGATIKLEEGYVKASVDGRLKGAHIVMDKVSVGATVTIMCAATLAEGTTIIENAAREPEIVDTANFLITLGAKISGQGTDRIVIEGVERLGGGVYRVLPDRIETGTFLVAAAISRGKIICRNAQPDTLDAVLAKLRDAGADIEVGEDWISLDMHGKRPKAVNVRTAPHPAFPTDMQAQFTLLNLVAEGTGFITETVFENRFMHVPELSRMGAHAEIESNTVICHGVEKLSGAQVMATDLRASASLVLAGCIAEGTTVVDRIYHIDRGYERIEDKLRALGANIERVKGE
measurement.name: IC50 (µM)
Your answer is read as µM, so omit the unit and give the number.

compound: O=C(Nc1ccc(-c2cn[nH]c2)cc1)C1CN(c2cccc(Cl)c2)N(c2cccc(Cl)c2)C1=O (stereo not drawn)
measurement.name: IC50
observed.measurement: 12.4
--
compound: O=C1NC(=O)c2cc(NC(=O)C3CN(c4cccc(Cl)c4)N(c4cccc(Cl)c4)C3=O)ccc21 (stereo not drawn)
measurement.name: IC50
observed.measurement: 12.7

# ---- query compound ----
Noted for O=C(Nc1ncc([N+](=O)[O-])s1)C1CN(c2cccc(Cl)c2)N(c2cccc(Cl)c2)C1=O (stereo not drawn) : its IC50 reads 10.9

---

MIC reference
system: Staphylococcus aureus; assay: Antibacterial activity against Staphylococcus aureus Newman D2C NCTC 10833 assessed as reduction in microbial growth incubated for 16 hrs by serial dilution method; type: functional

response.value for CN1C(=O)C(C(=O)Nc2ncc(C#N)s2)CN1c1cccc(Cl)c1 (configuration not stated) (field: MIC) = > 40 µM

Entry under test: Cc1csc(NC(=O)C2CN(c3cccc(Cl)c3)N(c3cccc(Cl)c3)C2=O)n1 (configuration not stated) . Its MIC was > 40 µM

The reported MIC of the compound O=C1NC(=O)c2cc(NC(=O)C3CN(c4cccc(Cl)c4)N(c4cccc(Cl)c4)C3=O)ccc21 (configuration not stated) was > 40 µM

N#Cc1ccc(NC(=O)C2CN(c3cccc(Cl)c3)N(c3cccc(Cl)c3)C2=O)cn1 (configuration not stated) has a reported MIC of > 40 µM

The recorded MIC for Cc1cnc(NC(=O)C2CN(c3cccc(Cl)c3)N(c3cccc(Cl)c3)C2=O)s1 (configuration not stated) is > 40 µM

Entry O=C(Nc1nc2ccccc2s1)C1CN(c2cccc(Cl)c2)N(c2cccc(Cl)c2)C1=O (configuration not stated) , MIC reported as > 40 µM

Measured MIC of O=C(Nc1ncc([N+](=O)[O-])s1)C1CN(c2cccc(Cl)c2)N(c2cccc(Cl)c2)C1=O (configuration not stated) : 10 µM

---

Listing of recorded MIC by entry.
tested on: Staphylococcus aureus; assay: Antibacterial activity against vancomycin resistant Staphylococcus aureus 10 assessed as reduction in microbial growth by CLSI based broth microdilution method; format: functional

Completed entries (count: 4):
compound: CC(=O)NC[C@H]1CN(c2ccc(N3CCOCC3)c(F)c2)C(=O)O1 [LINEZOLID]
system.tested: Staphylococcus aureus
MIC: 0.5 µg/mL
//
compound: O=C(Nc1ncc([N+](=O)[O-])s1)C1CN(c2ccc(Cl)cc2)N(c2ccc(Cl)cc2)C1=O (stereo not given)
system.tested: Staphylococcus aureus
MIC: > 64 µg/mL
//
compound: O=C(Nc1ncc([N+](=O)[O-])s1)C1CN(c2cccc(Cl)c2)N(c2cccc(Cl)c2)C1=O (stereo not given)
system.tested: Staphylococcus aureus
MIC: 4 µg/mL
//
compound: N#Cc1cnc(NC(=O)C2CN(c3cccc(Cl)c3)N(c3cccc(Cl)c3)C2=O)s1 (stereo not given)
system.tested: Staphylococcus aureus
MIC: 8 µg/mL

Could you now look at the following compound, please?
Data point: CN[C@H](CC(C)C)C(=O)N[C@H]1C(=O)N[C@@H](CC(N)=O)C(=O)N[C@H]2C(=O)N[C@H]3C(=O)N[C@H](C(=O)N[C@H](C(=O)O)c4cc(O)cc(O)c4-c4cc3ccc4O)[C@H](O)c3ccc(c(Cl)c3)Oc3cc2cc(c3O[C@@H]2O[C@H](CO)[C@@H](O)[C@H](O)[C@H]2O[C@H]2C[C@](C)(N)[C@H](O)[C@H](C)O2)Oc2ccc(cc2Cl)[C@H]1O [VANCOMYCIN] ; MIC = 32 µg/mL

---

assay: Drug uptake in Escherichia coli harboring tolC deletion mutant assessed per 1.6x10^9 cells at 10 uM incubated for 30 mins by LC analysis; assay type: ADME; details: 0.5 h
Label False if Drug uptake falls below 20 µM; label True in every other case.

// known answers, use as guide
compound: O=C(Nc1ncc([N+](=O)[O-])s1)C1CN(c2cccc(Cl)c2)N(c2cccc(Cl)c2)C1=O (stereo not given)
label.class: False

compound: N#Cc1cnc(NC(=O)C2CN(c3cccc(Cl)c3)N(c3cccc(Cl)c3)C2=O)s1 (stereo not given)
label.class: True

compound: O=C(Nc1ccc(-c2cn[nH]c2)cc1)C1CN(c2cccc(Cl)c2)N(c2cccc(Cl)c2)C1=O (stereo not given)
label.class: False

Exam item: State whether the measured Drug uptake reaches 20 µM, counting equality as reaching it, for O=C(Nc1nc2ccccc2s1)C1CN(c2cccc(Cl)c2)N(c2cccc(Cl)c2)C1=O (stereo not given)
Marked response: False

Exam item: Given O=C1NC(=O)c2cc(NC(=O)C3CN(c4cccc(Cl)c4)N(c4cccc(Cl)c4)C3=O)ccc21 (stereo not given) , state whether its Drug uptake is at least 20 µM.
Marked response: True

---

test system: Clostridioides difficile; assay: Antibacterial activity against Clostridioides difficile NR-49287 assessed as reduction in microbial growth incubated for 48 hrs by broth microdilution method; format: functional
Let's look at some compounds and their measured MIC.

The cases that follow already have their MIC on record.
compound: CN[C@H](CC(C)C)C(=O)N[C@H]1C(=O)N[C@@H](CC(N)=O)C(=O)N[C@H]2C(=O)N[C@H]3C(=O)N[C@H](C(=O)N[C@H](C(=O)O)c4cc(O)cc(O)c4-c4cc3ccc4O)[C@H](O)c3ccc(c(Cl)c3)Oc3cc2cc(c3O[C@@H]2O[C@H](CO)[C@@H](O)[C@H](O)[C@H]2O[C@H]2C[C@](C)(N)[C@H](O)[C@H](C)O2)Oc2ccc(cc2Cl)[C@H]1O
observed.measurement: 1 µg/mL
//
compound: CCc1c(Cl)c(O)c(Cl)c(O)c1C(=O)O[C@H]1[C@H](O)[C@H](OC)[C@H](OC/C2=C\C=C\C[C@H](O)/C(C)=C/[C@H](CC)[C@@H](O[C@@H]3OC(C)(C)[C@@H](OC(=O)C(C)C)[C@H](O)[C@@H]3O)/C(C)=C/C(C)=C/C[C@@H]([C@@H](C)O)OC2=O)O[C@@H]1C
observed.measurement: 0.125 µg/mL
//
compound: O=C(Nc1ncc([N+](=O)[O-])s1)C1CN(c2ccc(Cl)cc2)N(c2ccc(Cl)cc2)C1=O (centres undefined)
observed.measurement: 0.5 µg/mL

# next compound below
// MIC lookup, compound = O=C(Nc1ncc([N+](=O)[O-])s1)C1CN(c2cccc(Cl)c2)N(c2cccc(Cl)c2)C1=O (centres undefined) , result: 0.5 µg/mL
